# TARGET_SYSTEM: human HER3 endogenously expressed on human cancer cells (SK-Br-3, BT-474, MCF7) (human, UniProt P21860 20-1342)
# TEST_PROTOCOL: cell-based or functional assay
Overview of recorded MCF7 pAkt IC50 for various binders
Report only the number, with the unit pM understood.

Recorded MCF7 pAkt IC50, per entry:
BINDER	PARAMETER	UNIT_TAG	DATA_VALUE
MOR13658 (antibody, human IgG1, lambda, V domains shown, Tested as IgG) VH: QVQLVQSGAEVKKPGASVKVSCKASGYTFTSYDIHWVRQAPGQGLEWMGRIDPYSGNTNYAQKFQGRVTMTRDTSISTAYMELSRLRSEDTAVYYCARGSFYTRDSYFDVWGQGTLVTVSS VL: DIALTQPASVSGSPGQSITISCTGTSSDVGTYNQVSWYQQHPGKAPKLMIYGVSKRPSGVSNRFSGSKSGNTASLTISGLQAEDEADYYCASADHSYHTVFGGGTKLTVLG	MCF7 pAkt IC50	pM	341
MOR12605 (antibody, human IgG1, kappa, V domains shown, Tested as IgG) VH: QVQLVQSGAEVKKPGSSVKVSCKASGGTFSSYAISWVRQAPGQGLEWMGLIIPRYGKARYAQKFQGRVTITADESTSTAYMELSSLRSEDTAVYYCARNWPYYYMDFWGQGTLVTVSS VL: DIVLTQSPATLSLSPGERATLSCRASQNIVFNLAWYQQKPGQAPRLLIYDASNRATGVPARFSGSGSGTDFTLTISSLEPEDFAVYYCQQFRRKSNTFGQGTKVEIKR	MCF7 pAkt IC50	pM	533

Now for the binder whose MCF7 pAkt IC50 we want.
Inquiry: Which MCF7 pAkt IC50 value belongs to MOR12615 (antibody, human IgG1, lambda, V domains shown, Tested as IgG) VH: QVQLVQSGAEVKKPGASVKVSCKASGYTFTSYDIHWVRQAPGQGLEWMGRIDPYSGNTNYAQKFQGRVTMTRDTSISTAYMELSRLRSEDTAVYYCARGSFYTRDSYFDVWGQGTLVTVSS VL: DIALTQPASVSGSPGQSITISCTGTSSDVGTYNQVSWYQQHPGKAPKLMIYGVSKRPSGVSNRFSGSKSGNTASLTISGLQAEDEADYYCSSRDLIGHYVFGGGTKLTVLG ?
Reply text: 815
